Readout Type: melting point

Give the value of melting point reported for the following: O=S(=O)(CC1CCC1)c1nc[nH]n1
125 to 134 °C

Give the value of melting point reported for the following: CC(C)(C)[Si](C)(C)OC1CCCc2cnc3cc(OCc4ccccc4[N+](=O)[O-])ccc3c21 (stereo not given)
150 to 152 °C

Give the value of melting point reported for the following: Clc1ccc2c(C3=CCN(CCC4CCc5ccccc54)CC3)c[nH]c2c1 (stereo not given)
181 to 183 °C

Give the value of melting point reported for the following: CCOC(=O)N1c2cc(OC)c(OC)cc2[C@H](NC(=O)Cc2cc(C(F)(F)F)cc(C(F)(F)F)c2)C[C@@H]1C (relative stereo)
157 to 159 °C

Give the value of melting point reported for the following: CCOc1nc(N)n2nc(-c3ccco3)nc2n1
211 to 213 °C

Give the value of melting point reported for the following: O=[N+]([O-])c1ccc(F)c(Br)c1
59 °C

Give the value of melting point reported for the following: CC(=O)Nc1ccc(S(=O)(=O)Nc2nnc(C(C)(C)C)s2)cc1
137 to 138 °C

Give the value of melting point reported for the following: CC(C)(C)[Si](C)(C)Oc1ccc(NC(=O)CN2CCC(O)(Cc3ccccc3)CC2)cc1
105 to 108 °C

Give the value of melting point reported for the following: Cc1cc(C)c(Nc2nc(C)ncc2S(=O)(=O)c2ccc(-n3ccnc3)cc2)c(C)c1
230 to 232 °C

Give the value of melting point reported for the following: CCCCc1nc(Cl)c(C(=O)O)n1Cc1ccc2oc(-c3ccccc3-c3nnn[nH]3)cc2c1
209 to 210 °C

Give the value of melting point reported for the following: COC(=O)C(OC)c1ccc2oc(-c3ccc(Cl)cc3)nc2c1 (stereo not given)
100 to 105 °C

Give the value of melting point reported for the following: CN(C)CC(=O)N1CCC(c2cc(F)ccc2F)(S(=O)(=O)c2ccc(Cl)cc2)CC1
88 to 92 °C

Give the value of melting point reported for the following: CCNC(=O)c1c([Si](C)(C)C)ccc(-c2ccccc2)c1Cl
134 to 135 °C

Give the value of melting point reported for the following: CC(C)NCCC(C(N)=O)c1ccccc1-c1ccccc1 (stereo not given)
92 to 95 °C

Give the value of melting point reported for the following: Oc1cc(N2CCCCC2)c(Cl)cc1CCBr
115 to 116 °C

Give the value of melting point reported for the following: CC(C)c1cc(O)cc2c1C(=O)N(CCl)S2(=O)=O
149 to 150 °C

Give the value of melting point reported for the following: COc1cc(Nc2nn(Cc3ccccc3)c(=O)c3ccccc23)cc(OC)c1OC
206 to 207 °C

Give the value of melting point reported for the following: Brc1ccn2nc(-c3ccccc3)nc2c1
189 to 191 °C

Give the value of melting point reported for the following: CC1(C(=O)NCCc2cccs2)CCCCC1
79 to 80 °C

Give the value of melting point reported for the following: CCCCCCOc1ccc(NC(=O)CC(=O)C(C)(C)C)cc1
70 to 72 °C

Give the value of melting point reported for the following: CC(C)(C)OC(=O)N1CCCC1(Cc1ccc(Br)cc1)C(=O)O (stereo not given)
144 °C

Give the value of melting point reported for the following: COc1cc(Nc2nccc(-c3ccc(-c4nnn[nH]4)cc3)n2)cc(OC)c1OC
246 to 247 °C

Give the value of melting point reported for the following: COc1ccc(Nc2cc(-c3ccccc3)nc(NC3CCC(O)CC3)n2)cc1Cl (stereo not given)
293 to 295 °C

Give the value of melting point reported for the following: Cc1nc(-n2ccccc2=O)sc1C(=O)NCc1cccnc1
218 to 220 °C

Give the value of melting point reported for the following: CC1COc2c(F)c(F)cc3c2N1C(=O)C3=O (stereo not given)
169 to 171 °C

Give the value of melting point reported for the following: COc1ccc(-c2c(C(=O)O)[nH]c3cc(OC)c(OC)cc23)cc1OC
198 to 200 °C

Give the value of melting point reported for the following: CCOC(=O)C(O)=Cc1ccc(Cc2ccc(F)cc2)cn1
94 to 96 °C

Give the value of melting point reported for the following: Cc1cnc(N2CCc3ccccc3CC2)c([N+](=O)[O-])c1
87 to 88 °C

Give the value of melting point reported for the following: CC12CCC3C(CCC4C(=O)CCCC43C)C1CCC2O (stereo not given)
123 to 126 °C

Give the value of melting point reported for the following: Cn1cnc2c1c1nnc(-c3ccccc3)n1c(=O)n2Cc1ccccc1
255 to 257 °C

Give the value of melting point reported for the following: ClC1(Cl)C(c2ccccc2)C1(c1ccccc1)c1ccccc1 (stereo not given)
106 to 107 °C

Give the value of melting point reported for the following: CCOC(=O)c1[nH]ccc1N
197 to 200 °C

Give the value of melting point reported for the following: NC(=O)c1ccc(-c2cccc3cc(Cc4cccc(C(F)(F)F)c4)sc23)nc1
222 to 223 °C

Give the value of melting point reported for the following: CCCCNc1cc(CN)cc(S(N)(=O)=O)c1Oc1ccccc1
195 to 198 °C

Give the value of melting point reported for the following: O=C(O)c1cc(NCc2c(F)c(F)c(C(F)(F)F)c(F)c2F)ccc1OC(=O)C1CCCCC1
190 to 193 °C

Give the value of melting point reported for the following: CC(NC(=O)C(C)(C)CCl)c1ccc(Cl)cc1 (stereo not given)
95 to 96 °C

Give the value of melting point reported for the following: CC(=O)SCCC(=O)N1[C@@H](c2ccccc2O)SC[C@H]1C(=O)N(c1ccccc1)[C@@H](C)C(=O)OC(C)(C)C
140 to 142 °C

Give the value of melting point reported for the following: CC(C)(C)c1cc(CC(C)(C)[N+](=O)[O-])cc(C(C)(C)C)c1O
101 to 104 °C

Give the value of melting point reported for the following: CCCCCCCCCCCCCCOc1c(CBr)cccc1CBr
59.3 to 59.8 °C

Give the value of melting point reported for the following: COC(=O)C1=C(C#N)NC(C)=C(C(=O)OC(C)C)C1c1cccc([N+](=O)[O-])c1 (stereo not given)
120 to 122 °C
